Biological target: Estrogen receptor beta (Homo sapiens)
Assay: displacement of fluorescent estrogen from ERbeta – cell-based, Cos7 ERbeta-GFP, flow cytometry, primary screen (AID 1210);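 further: 0% = DMSO vehicle wells and 100% = complete loss of labeled estradiol signal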
Details: fluorescent estrogen binding, ligand binding inhibition, at 0.1 µM, stronger effect = higher value
// label = fulfilled if inhibition is not less than 20%, otherwise not fulfilled

// query Given NS(=O)(=O)c1ccc2c(c1)C1C=CCC1C(C1CC=CCC1)N2 (configuration not stated) , state whether its inhibition is at least 20%.
// result not fulfilled

// query Check the entry `O=C(CSc1ccc(Cl)cc1)c1ccco1` : does inhibition equal or exceed 20%?
// result fulfilled

// query Is inhibition at least 20%? Consider `O=C(Nc1ccc2oc(-c3ccccc3F)nc2c1)c1cncc(Br)c1`
// result fulfilled

// query I'd appreciate it if you could say whether `COc1ccc(-c2nn(-c3ccccc3)cc2/C=C2/SC(=S)N(Cc3ccco3)C2=O)c(C)c1` has inhibition at least equal to 20%.
// result fulfilled

// query Test whether the compound `O=C(Cc1cn2ccsc2n1)OCc1nc2ccccc2s1` records inhibition of 20% or higher.
// result fulfilled

// query Confirm if inhibition reported for the compound `Cc1ccc(N=Cc2ccc(O)cc2O)cc1F` is 20% or above.
// result not fulfilled

// query Check the entry `COC(=O)c1cc(-c2c(C)oc3cc(O)ccc3c2=O)c(C)o1` : does inhibition equal or exceed 20%?
// result not fulfilled

// query Could you verify whether the entry O=[N+]([O-])c1ccc(Cl)c2c1C1C=CCC1C(c1ccccn1)N2 (configuration not stated) shows inhibition of no less than 20%?
// result not fulfilled

// query Reported inhibition reaches at least 20% for C/C=C/COC(=O)c1[nH]c2c(c1C)C(=O)CC(c1ccco1)C2 (configuration not stated) ?
// result not fulfilled

// query Exam item: decide whether the reported inhibition for `Cc1ccc(Cn2c(NC(=O)c3ccco3)nc3ccccc32)cc1` is at least 20%.
// result not fulfilled

// query Decide: is the reported value of inhibition for `Nc1ccc(N2CCN(C(=O)c3ccco3)CC2)cc1` equal to or greater than 20%?
// result fulfilled

// query Threshold query (inhibition >= 20%) on `CCOc1ccc(Nc2oc(-c3ccccc3Cl)nc2C#N)cc1`
// result fulfilled

// query Confirm if inhibition reported for the compound `O=C(c1cc2sccc2n1Cc1ccccc1)N1CCc2ccccc21` is 20% or above.
// result not fulfilled

// query Given the entry `COc1ccc(N=Cc2sc(O)c3ccccc23)cc1` , answer whether its inhibition meets or surpasses 20%.
// result fulfilled

// query Given the entry `Cc1cc(N)ccc1N=Nc1c(C)n(C)n(-c2ccccc2)c1=O` , answer whether its inhibition meets or surpasses 20%.
// result fulfilled

// query Is inhibition for `CC(C)CC(=O)Nc1ccc(C(=O)COc2ccc(-c3nnco3)cc2)cc1` at or above 20%?
// result fulfilled

// query Is reported inhibition greater than or equal to 20% here: O=C(O)c1ccc2c(c1)C1C=CCC1C(c1cc3c(cc1Br)OCO3)N2 (configuration not stated)
// result not fulfilled

// query Is inhibition for `COc1ccc(-c2nnc(SCC(=O)/C(C#N)=C(\C)N)o2)cc1` at or above 20%?
// result not fulfilled

// query Does the compound COc1ccc(C2CC(c3c(-c4ccccc4)c4cc(Cl)ccc4[nH]c3=O)=NN2S(C)(=O)=O)cc1OC (configuration not stated) have recorded inhibition that is 20% or more?
// result fulfilled

// query Quick check, inhibition >= 20%? `Cc1cc2oc(=O)cc(COC(=O)c3n[nH]c4ccccc34)c2cc1C`
// result not fulfilled

// query Check this compound for inhibition at or above 20%: `c1ccc(Cc2nnc3sc(-c4ccco4)nn23)cc1`
// result fulfilled

// query Decide: is the reported value of inhibition for `Cc1cc(NC(=O)CSc2cn(CCNC(=O)c3ccc(Cl)cc3)c3ccccc23)no1` equal to or greater than 20%?
// result fulfilled

// query // inclusive: inhibition at least 20%? input: `CCc1nc(N)nc(N)c1-c1ccc(Cl)cc1`
// result fulfilled

// query Has `O=C(COC(=O)CCC(=O)c1cccs1)NCc1ccco1` a recorded inhibition greater than or equal to 20%?
// result not fulfilled

// query Reported inhibition reaches at least 20% for `O=C(CSc1nnc(Nc2ccccc2F)s1)NCc1ccco1` ?
// result fulfilled

// query Is the recorded value of inhibition equal to or greater than 20% for this compound? `COc1ccc(-c2nc3ccc([N+](=O)[O-])cc3o2)cc1`
// result not fulfilled

// query Exam item: decide whether the reported inhibition for `COc1cc(-c2nc3ccc4ccccc4c3c3c2CCC3)ccc1O` is at least 20%.
// result fulfilled

// query Confirm if inhibition reported for the compound `C[C@]12CC[C@@H]3c4ccc(O)cc4[C@@H](O)C[C@H]3[C@@H]1CC[C@@H]2O` is 20% or above.
// result fulfilled

// query Confirm if inhibition reported for the compound Cc1ccc2[nH]c(=O)c(C3C(C#N)=C(N)Oc4c3ccc3cccnc43)cc2c1 (configuration not stated) is 20% or above.
// result fulfilled

// query Item `Cc1ccc(C(=O)Nc2nc(-c3cccnc3)cs2)o1` with inhibition of 20% or above?
// result fulfilled

// query Does the compound CC12CCC(=O)N1C(C(=O)OCC(=O)Nc1sccc1C#N)CS2 (configuration not stated) have recorded inhibition that is 20% or more?
// result fulfilled

// query Confirm if inhibition reported for the compound `Cc1ccc(Cc2cncc(O)c2)cc1S(=O)(=O)O` is 20% or above.
// result not fulfilled

// query Record COc1cc2c(cc1O)C(Cc1ccc(O)cc1)NCC2 (configuration not stated) ; criterion: inhibition no lower than 20%. Met?
// result not fulfilled

// query Please check the record `CN=c1scc(C)n1/N=C/c1ccc(O)cc1O` and state if its inhibition is at or above 20%.
// result not fulfilled

// query Test whether the compound `COC(=O)c1c(-c2ccncc2)csc1NC(=O)c1ccoc1C` records inhibition of 20% or higher.
// result not fulfilled

// query In plain terms: is recorded inhibition at least 20% for CCCNCC1COc2ccccc2O1 (configuration not stated) ?
// result fulfilled

// query Decide: is the reported value of inhibition for `ON=C1/C(=N\O)CC2(C/C1=N/O)OCCO2` equal to or greater than 20%?
// result fulfilled

// query Assess whether reported inhibition for `Nc1ccc2oc(-c3ccccc3Cl)cc(=O)c2c1O` sits at 20% or higher.
// result fulfilled

// query Threshold query (inhibition >= 20%) on `O=c1oc2ccccc2cc1-c1ccc(O)cc1O`
// result fulfilled

// query Dear colleague, could you confirm whether `O=C(Nc1nccs1)c1ccc2nccnc2c1` has inhibition at or above 20%?
// result fulfilled

// query Hi, just wondering whether `O=c1c2c([nH]c3ccccc13)C(=C1CCCC1)CC2` shows inhibition of 20% or higher.
// result not fulfilled

// query Hi team, for `COC(=O)c1ccc(CC(=O)c2c(C)cc(O)cc2O)o1` , is the recorded inhibition at or above 20%?
// result fulfilled

// query Decide: is the reported value of inhibition for `Oc1ccccc1-c1nnc(SCCN2CCOCC2)n1Cc1ccccc1` equal to or greater than 20%?
// result fulfilled

---

Target: Estrogen receptor beta (Homo sapiens) (UniProt Q92731)
Sequence (Q92731 whole entry, looked up): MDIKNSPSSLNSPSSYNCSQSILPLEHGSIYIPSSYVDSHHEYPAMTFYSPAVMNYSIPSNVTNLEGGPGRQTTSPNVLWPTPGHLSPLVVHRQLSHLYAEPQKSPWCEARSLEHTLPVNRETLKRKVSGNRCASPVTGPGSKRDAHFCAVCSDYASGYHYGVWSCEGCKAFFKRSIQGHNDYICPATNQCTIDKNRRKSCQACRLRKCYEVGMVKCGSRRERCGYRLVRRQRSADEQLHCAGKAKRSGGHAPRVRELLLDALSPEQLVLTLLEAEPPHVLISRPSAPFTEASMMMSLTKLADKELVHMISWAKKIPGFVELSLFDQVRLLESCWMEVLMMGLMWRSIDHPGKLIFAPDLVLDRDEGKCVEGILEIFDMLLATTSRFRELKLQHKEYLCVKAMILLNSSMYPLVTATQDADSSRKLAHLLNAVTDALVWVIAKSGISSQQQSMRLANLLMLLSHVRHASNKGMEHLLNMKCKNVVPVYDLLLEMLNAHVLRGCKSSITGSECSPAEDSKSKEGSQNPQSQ
Experiment: displacement of fluorescent estrogen from ERbeta – cell-based, Cos7 ERbeta-GFP, flow cytometry, primary screen (AID 1210);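 further: 0% = DMSO vehicle wells and 100% = complete loss of labeled estradiol signal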
Conditions: fluorescent estrogen binding, ligand binding inhibition, at 0.1 µM, stronger effect = higher value
measure: inhibition (%)
// units = %; emit number, no label

Value of measured inhibition for the entry `O=C(COC(=O)c1cccc(S(=O)(=O)N2CCc3ccccc3C2)c1)NCc1ccco1` : 5

inhibition measured on `Cn1c(SCC(=O)Nc2sccc2C#N)nnc1-c1ccccc1` = 13

Per the record, `Cc1cc(=O)oc2c(CN3CCC(C)CC3)c(O)c(Cl)cc12` has inhibition of 11

Per the record, `C[C@]12CC[C@@H]3c4ccc(O)cc4C(=O)C[C@H]3[C@@H]1CC[C@@H]2O` has inhibition of 89

inhibition in this record for `Cc1ccc(OCc2ccoc2C(=O)O)cc1C` : 8

inhibition reported for this compound COc1ccc(C(Nc2ccccn2)c2oc(CO)cc(=O)c2O)cc1 (stereo unspecified) : 40

---

Target: Estrogen receptor beta (Homo sapiens) (UniProt Q92731)
Assay: displacement of fluorescent estrogen from ERbeta – cell-based, Cos7 ERbeta-GFP, flow cytometry, primary screen (AID 1210);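 further: 0% = DMSO vehicle wells and 100% = complete loss of labeled estradiol signal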
Settings: fluorescent estrogen binding, at 10 µM, stronger effect = higher value
measure: inhibition (%)
Please respond with the number in % and leave the unit unwritten.

// inhibition lookup, compound = `COc1ccccc1NC(=O)c1ccccc1NC(=O)c1cc(Cl)ccc1NC(=O)c1ccco1` , result: 77

Entry COc1ccc2[nH]c3c(c2c1)CCNC3C1CC=C(C)CC1 (stereo unspecified) — recorded inhibition = 22

For record `COc1cc(NC(=O)c2cccs2)c(C(=O)OCC(=O)NCc2ccco2)cc1OC` the listed inhibition is 41

GET /value?item= `Cc1cc(=O)oc2c(CN3CCC(C)CC3)c(O)c(Cl)cc12` &field=inhibition returns 20

Noted for CC(Oc1ccc(Cl)cc1Cl)C(=O)Nc1ccc2oc(-c3ccncc3)nc2c1 (stereo unspecified) : its inhibition reads 50

# inhibition (compound: O=C1CC(c2ccncc2)c2cc3c(cc2N1)OCCO3 (stereo unspecified) ) is 14

Consider O=C(Nc1ccc(O)cc1)C1CC=CCC1 (stereo unspecified) . Its measured inhibition is 29

Reported inhibition of `CCOC(=O)Cn1cnc2sc3c(c2c1=O)CCC3` : 37

Record `COc1ccc(N=C2NC(=O)S/C2=C\c2ccc(N(C)C)cc2)cc1` . Reported inhibition: 59

Value of inhibition reported for the compound `COc1ccc(Cc2nnc(NC(=O)Cc3cccs3)s2)cc1` is 17

Sample `CCCCOc1cc(OCCCC)c2c3c(c(=O)oc2c1)CCCC3` ; inhibition observed: 27

For `O=C(c1cc2sccc2n1Cc1ccccc1)N1CCc2ccccc21` the compound record lists inhibition as 42

The compound COc1cc(C(C#N)N2N=C(c3ccccc3)CC2c2ccccc2)ccc1O (stereo unspecified) showed inhibition equal to 54

Lookup result for `O=C1OC(c2ccc(O)cc2)(c2ccc(O)cc2)c2ccccc21` ; measured inhibition: 51

Lookup result for O=C1C2C3C=CC(C3)C2C(=O)N1c1cccc2cccnc12 (stereo unspecified) ; measured inhibition: 55

// sample `CCc1ccc2[nH]c(=O)c(CN(Cc3ccc4c(c3)OCO4)C(=O)c3ccco3)cc2c1` , its inhibition was 13

Sample O=c1c(OC2OC(CO)C(O)C(O)C2O)c(-c2ccc(O)c(O)c2)oc2cc(O)cc(O)c12 (stereo unspecified) ; inhibition observed: 36

# inhibition (compound: `Clc1ccc(Sc2cc(N3CCOCC3)nc(-c3ccccc3)n2)cc1` ) is 36

Recorded result, `COc1ccc(C)cc1-n1nnnc1SCC(=O)NC(=O)NCc1ccco1` , inhibition: 61

The recorded inhibition for entry `O=C(O)c1cc(-c2ccc(O)cc2)nc2ccccc12` equals 57

The reported inhibition of the compound `Cc1nc2ccc(C(=O)O)cc2[nH]1` was 31

The recorded inhibition for `CCN(CC)c1ccc2c(c1)oc(=O)c1c(Cl)cc(=O)oc12` is 33

Just so you know, measured inhibition for `CCOC(=O)c1c(N)sc2c1CC(C)(C)NC2(C)C` came out at 22

For `c1ccc(-c2nnc3sc(Cc4cccs4)nn23)cc1` the compound record lists inhibition as 18

// recorded inhibition for COC(=O)c1ccc2c(c1)C1C=CCC1C(c1cccc([N+](=O)[O-])c1)N2 (stereo unspecified) : 18

For reference, reported inhibition for `O=C(CSc1nc2ccccc2c(=O)[nH]1)c1ccc(O)c(O)c1` stands at 36

get_value(item= O=C(COC(=O)C1CC2C=CC1C2)NCc1ccco1 (stereo unspecified) , readout=inhibition) returns 25

Just so you know, measured inhibition for `CCn1c2ccccc2c2cc(NC(=O)CSc3nnc(-c4ccc(OC)cc4)n3N)ccc21` came out at 57

Lookup result for `CC(C)c1ccc2c(c1)[C@H]1OCC[C@H]1[C@@H](c1cccs1)N2` ; measured inhibition: 0

The compound identified as `Cc1ccccc1Nc1nnc(SCC(=O)NCc2ccco2)s1` registered its inhibition at 26

Memo: O=C(O)C1Nc2c(C(=O)N3CCOCC3)cccc2C2C=CCC12 (stereo unspecified) , reported inhibition: 45

Reference source for all entries: PubChem BioAssay AID1210
